src = patent US20260258115A1

Biological target: RSV prefusion F (preF), DS-Cav1 (Respiratory Syncytial Virus, UniProt P03420 26-513)
Assay: BLI, IgG on anti-human IgG sensor, 100 nM antigen, 1:1 fit
Record form. Attribute: pKd. Fill in for each entry.
Units for pKd: none; it is -log10 of a concentration expressed in mol/L.

Task item: Requested field: pKd. Item: ADI-41545 (antibody, V domains shown, also called Ab 817; Antibody Number 817) VH: QVQLVESGPGLVKPSETLSLTCTVSGGSISRYYWSWIRQSPGKGLEWIGYIYHSVITNYNPSLKSRVTISIDMSKNQFSLKLSSVTAADTAVYYCASRPLINGYGPDNYFDYWGQGTLVTVSS VL: SYVLTQPPSVSVAPGQTARITCGGNNIGSKSVHWYQRKPGQAPVLVVYDDSDRPSGIPERFSGSNSGNTATLTIIRVEAGDEADYYCQVWDNSSDHPVFGGGTKLTVL
Reply: 8.87

Task item: Requested field: pKd. Item: ADI-41528 (antibody, V domains shown, also called Ab 800; Antibody Number 800) VH: EVQLVESGGGVVQPGRSLRLSCAASGFTFSSYAMHWVRQAPGKGLEWVAVISFDGSSDYYADSVKGRFTISRDSSKNTLYLRMNSLRAEDTAVYYCARRAVEYSIYNNDAFDVWGQGTTVTVSS VL: SYELTQPPSVSVSPGQTASITCSGDKLGNKFTFWYQQKSGQSPVLVIYQETKRPSGIPERFSGSNSGNTATLTISGTQSMDEADYYCQAWDSSTAFFGGGTKLTVL
Reply: 8.64

Task item: Requested field: pKd. Item: ADI-41493 (antibody, V domains shown, also called Ab 773; Antibody Number 773) VH: QVQLVQSGAEVKKPGESLKISCKGSGYSFTKYWIGWVRQLPGKGLEWMGIIYPGDSETIYSPSFQGQVTISADKSVSTAYLQWSSLKASDTAMYYCARQTFVFWGESHDAFDIWGQGTTVTVSS VL: QPVLTQPPSASGSPGQSVTISCTGTSSDVGAHNYVSWYQQHPGKAPKLMIYEVSKRPSGVPDRFSGSKSGNTASLTVSGLQAEDEADYYCSSYAGSNNWVFGGGTKLTVL
Reply: 9.35
